What logP was measured for each of the following?
testMethodNotes: Lipophilicity, log P of the compound
Assay type: physicochemical
conditionContext: octanol/water
Form: value (number only, do not type unit).

q: Which logP value is on record for CCOC(=O)C1C(=O)C=C(Nc2ccccc2N2CCN(C)CC2)CC1c1ccccc1 (stereo not given) ?
a: 4.35

q: Param item = CCOC(=O)C1C(=O)C=C(Nc2ccc(N3CCN(C)CC3)cc2)CC1C (stereo not given) ; retrieve measured logP.
a: 3.07

q: Report logP for COC(=O)C1C(=O)C=C(Nc2ccc(N3CCN(C)CC3)cc2)CC1C (stereo not given) please.
a: 2.7

q: Returns the measured logP for the input compound. Input: CCOC(=O)C1C(=O)C=C(Nc2cccc(N3CCN(C)CC3)c2)CC1C (stereo not given)
a: 3.05

q: What does the record list as logP for COC(=O)C1C(=O)C=C(Nc2cccc(N3CCN(C)CC3)c2)CC1C (stereo not given) ?
a: 2.67

Data origin, for the record: ChEMBL document CHEMBL4229405
